- Target Or System: human P2X7 receptor (Homo sapiens, UniProt Q99572, R270H/Y155H)
- Run Description: Evaluation of human P2X7 receptor inhibitory activity (Yo-Pro uptake, BzATP stimulation, FLIPR TETRA)
- Format: cell-based
- Study Conditions: 1321N1 cells stably expressing human P2X7 receptor; BzATP stimulation, Yo-Pro uptake; read-out: IC50 (antagonistic activity for the human P2X7 receptor), class symbol
pIC50: −log10 of the molar value.

[
  {
    "Compound": "COc1cn(Cc2ccccc2)c(Nc2cc(S(C)(=O)=O)ccc2C)nc1=O [Compound I-0513]",
    "pIC50": "6.30 to 7.00"
  },
  {
    "Compound": "COc1cn(Cc2ccc(F)cc2)c(Nc2cc(C)c(OC(F)F)cc2C)nc1=O [Compound I-0301]",
    "pIC50": "> 8.00"
  },
  {
    "Compound": "COc1cn(Cc2ccccc2)c(Nc2cc(Cl)c(Cl)cc2Cl)nc1=O [Compound I-0154]",
    "pIC50": "6.30 to 7.00"
  },
  {
    "Compound": "COc1cn(Cc2ccccc2)c(Nc2cc3[nH]ncc3cc2C)nc1=O [Compound I-0221]",
    "pIC50": "7.00 to 8.00"
  }
]
